Each item that follows carries a reported normalized RNA/DNA level with ligand (log10).
B1: library; a variant is named by its letters at N, in order (parent)
chain: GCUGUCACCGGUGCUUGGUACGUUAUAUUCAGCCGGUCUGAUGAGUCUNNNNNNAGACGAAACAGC

- Variants of: B1
- protocol: normalized RNA/DNA level with ligand (relative to sTRSVctl = 100) (log10 (% of sTRSVctl)); HEK293T overexpressing SLC46A1; ligand concentration (+) RNA-Seq: 6 mM; higher = less ribozyme self-cleavage, higher mRNA level
- details: with (6R,S)-folinic acid; ligand present: yes
measurementType: normalized RNA/DNA level with ligand (log10)

CUAGGA :: 2.01
UGUGAA :: 1.98
ACCAAA :: 2.02
AGCCGA :: 2.02
AGGCCA :: 2.04
GUGGGC :: 1.98
GACUGG :: 2.02
AUGCCG :: 2
AACCUG :: 2.02
CGCUGC :: 2.05
GCCAAA :: 2.03
